- measured.on: UniProt:P04798
- Sequence (P04798 whole entry): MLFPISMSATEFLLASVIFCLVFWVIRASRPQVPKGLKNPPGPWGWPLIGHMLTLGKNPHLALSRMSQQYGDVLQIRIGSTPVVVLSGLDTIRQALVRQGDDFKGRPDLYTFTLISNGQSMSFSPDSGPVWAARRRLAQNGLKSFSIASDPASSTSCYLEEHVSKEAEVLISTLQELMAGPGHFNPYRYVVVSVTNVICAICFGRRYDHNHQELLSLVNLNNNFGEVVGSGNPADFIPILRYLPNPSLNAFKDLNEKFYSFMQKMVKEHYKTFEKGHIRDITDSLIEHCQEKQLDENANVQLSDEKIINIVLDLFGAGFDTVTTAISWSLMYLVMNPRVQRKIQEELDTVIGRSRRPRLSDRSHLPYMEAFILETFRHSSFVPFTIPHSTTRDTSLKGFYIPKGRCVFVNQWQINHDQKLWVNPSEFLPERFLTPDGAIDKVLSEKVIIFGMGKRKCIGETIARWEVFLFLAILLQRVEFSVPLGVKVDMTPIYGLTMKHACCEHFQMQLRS
- test.protocol: Inhibition of recombinant human CYP1A1 using 7-ethoxyresorufin as substrate after 15 mins in presence of NADP+ by EROD assay
quantity.kind: IC50 (nM)

INSERT INTO measurements (given_smiles, quantity_kind, unit_abbreviation, limit_sign, observed_value) VALUES
  ('COc1ccc(OC)c2c1c(OC)cc1c(=O)cc(-c3cccc(N4CCOCC4)c3)oc12', 'IC50', 'nM', '=', 132),
  ('COc1ccc(OC)c2c1c(OC)cc1c(=O)cc(-c3cccc(O)n3)oc12', 'IC50', 'nM', '=', 323),
  ('COc1ccc(OC)c2c1c(OC)cc1c(=O)cc(-c3cncc(C(=O)O)c3)oc12', 'IC50', 'nM', '=', 85.8),
  ('COc1ccc(OC)c2c1c(OC)cc1c(=O)cc(-c3cccc(F)n3)oc12', 'IC50', 'nM', '=', 2.3),
  ('COc1ccc(OC)c2c1c(OC)cc1c(=O)cc(-c3cccnc3O)oc12', 'IC50', 'nM', '=', 152),
  ('COc1ccc(OC)c2c1c(OC)cc1c(=O)cc(-c3ccco3)oc12', 'IC50', 'nM', '=', 13.8),
  ('COc1ccc(OC)c2c1c(OC)cc1c(=O)cc(-c3ccc(N)nc3)oc12', 'IC50', 'nM', '=', 30.8),
  ('COc1ccc(OC)c2c1c(OC)cc1c(=O)cc(-c3ccc4[nH]cnc4c3)oc12', 'IC50', 'nM', '=', 42.4),
  ('COc1ccc(OC)c2c1c(OC)cc1c(=O)cc(-c3c[nH]c4ccccc34)oc12', 'IC50', 'nM', '=', 16.5),
  ('COc1ccc(OC)c2c1c(OC)cc1c(=O)cc(-c3ccc(N4CCN(C)CC4)cc3)oc12', 'IC50', 'nM', '>', 1000),
  ('COc1ccc(OC)c2c1c(OC)cc1c(=O)cc(-c3cncc(N)c3)oc12', 'IC50', 'nM', '=', 18.8),
  ('COc1ccc(OC)c2c1c(OC)cc1c(=O)cc(-c3ccccn3)oc12', 'IC50', 'nM', '=', 5.4),
  ('COc1ccc(OC)c2c1c(OC)cc1c(=O)cc(-c3ccnc(F)c3)oc12', 'IC50', 'nM', '=', 38.9),
  ('COc1ccc(OC)c2c1c(OC)cc1c(=O)cc(-c3cccc(Cl)n3)oc12', 'IC50', 'nM', '=', 5.7),
  ('COc1ccc(OC)c2c1c(OC)cc1c(=O)cc(-c3cc4ccccc4o3)oc12', 'IC50', 'nM', '=', 10.1),
  ('COc1ccc(OC)c2c1c(OC)cc1c(=O)cc(-c3cccnc3N)oc12', 'IC50', 'nM', '=', 137),
  ('COc1ccc(OC)c2c1c(OC)cc1c(=O)cc(-c3ccnc(O)c3)oc12', 'IC50', 'nM', '=', 232),
  ('COc1ccc(OC)c2c1c(OC)cc1c(=O)cc(-c3ccc4[nH]ncc4c3)oc12', 'IC50', 'nM', '=', 1.6),
  ('COc1ccc(OC)c2c1c(OC)cc1c(=O)cc(-c3ccc4ncccc4c3)oc12', 'IC50', 'nM', '=', 20.9),
  ('COc1ccc(OC)c2c1c(OC)cc1c(=O)cc(-c3cccc(N4CCN(C)CC4)c3)oc12', 'IC50', 'nM', '>', 1000);

# credit: ChEMBL document CHEMBL4732065
